# study.system: Yer184c (UniProt P39961)
# Sequence: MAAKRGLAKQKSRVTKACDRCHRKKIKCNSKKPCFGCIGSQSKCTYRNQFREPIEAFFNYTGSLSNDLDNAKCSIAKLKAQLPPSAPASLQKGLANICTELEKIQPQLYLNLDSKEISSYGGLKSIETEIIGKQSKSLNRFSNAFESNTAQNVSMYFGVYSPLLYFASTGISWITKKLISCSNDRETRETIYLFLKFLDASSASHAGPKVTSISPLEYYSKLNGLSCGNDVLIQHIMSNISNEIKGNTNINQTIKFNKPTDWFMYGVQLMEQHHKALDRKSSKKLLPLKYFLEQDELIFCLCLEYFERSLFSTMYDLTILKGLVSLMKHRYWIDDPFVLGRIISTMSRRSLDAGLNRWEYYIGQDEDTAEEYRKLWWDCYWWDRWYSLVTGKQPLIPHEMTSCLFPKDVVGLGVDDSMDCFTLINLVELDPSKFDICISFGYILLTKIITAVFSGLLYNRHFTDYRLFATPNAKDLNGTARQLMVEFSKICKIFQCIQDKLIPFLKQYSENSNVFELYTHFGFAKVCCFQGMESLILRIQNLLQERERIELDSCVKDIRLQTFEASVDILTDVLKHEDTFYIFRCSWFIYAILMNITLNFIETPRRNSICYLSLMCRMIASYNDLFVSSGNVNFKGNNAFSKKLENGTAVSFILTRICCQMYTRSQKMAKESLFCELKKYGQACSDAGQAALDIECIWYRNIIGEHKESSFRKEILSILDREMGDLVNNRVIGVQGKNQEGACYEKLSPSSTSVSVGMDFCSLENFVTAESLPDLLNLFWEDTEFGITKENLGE
# assay.explanation: PBM E-score (8-mer binding enrichment) (E-score (-0.5 to 0.5)); higher = stronger / more preferred TF binding
# assay.context: protein concentration: 100 nM; construct: GST-full length
In all, about 33,000 sequences were measured (“E-score (-0.5 to 0.5)”: median about -0.016, highest 2% from about 0.3 on). Only a selection was taken, and the highest values are over-represented in it overall.
Below, each entry is listed alongside its reported PBM E-score.
Answer with a bare number; do not write a unit.

Recorded results for 8 sequences are shown here.
I have this sequence here, `GAATCTGC` , and I need its recorded PBM E-score.
0.12

Item under review: `AAATATGT` . Reported PBM E-score?
0.304

Look at this sequence and give its reported PBM E-score. `ATCGGCGA`
0.128

State the recorded PBM E-score for this entry: `AAAAATAA`
0.237

Suppose we examine the sequence `ACAATCGT` ; what PBM E-score value has been reported?
-0.28

# get_value(readout='PBM E-score', item= `AAATATGA` )
0.0794

Fill blank: measured PBM E-score of the sequence `GTGCACAC` is ____.
-0.194

# query: PBM E-score of entry `TCCGCGAA`
0.234

More entries:
For `AATGTTAT` , what is its reported PBM E-score?
0.184

Data request, read-out PBM E-score, for `CATCTGCA`
-0.0527

Which measured PBM E-score value corresponds to `CTCGGCGA` ?
0.399
